meta.source: a melting point compilation (Tetko et al.; mined from patent text by program, amines drawn as free bases though some values may be those of a salt)

readout.name: melting point

Field melting point (entry COc1cc2c(cc1OC)C(C(=O)O)C(c1ccc(OCc3ccccc3)c(OCc3ccccc3)c1)N(C)C2=O (stereo not given) ) reads 194 to 196 °C

Field melting point (entry CCCOCCOc1ccc(OCC(O)CNCCNC(=O)N2CCOCC2)cc1 (stereo not given) ) reads 88 °C

Field melting point (entry Cc1ccc2c(O)c(CS(C)(=O)=O)cnc2c1 ) reads 285 to 290 °C

Field melting point (entry N#CCCNC(=O)c1cccc(-c2ccc3c(c2)N(c2ccc(Cl)cc2Cl)CC3)c1 ) reads 148 to 154 °C

Field melting point (entry COc1ccc(-n2c(=O)cc(C(F)(F)F)n(C)c2=O)c2c1C(=O)C(C)(C)O2 ) reads 222 to 224 °C

Field melting point (entry Oc1ccc(-c2ncc3ncc(Nc4ncccn4)cc3n2)cc1 ) reads > 268 °C

Field melting point (entry COc1ccc2[nH]c(S(=O)Cc3ncc(F)c(N4CCOCC4)c3C)nc2c1 (stereo not given) ) reads 158 to 160 °C

Field melting point (entry COc1ccc2nccc(CCNC(C)=O)c2c1 ) reads 113 to 115 °C

Field melting point (entry CCOC(=O)C=Cc1ccncc1 ) reads 64 to 66 °C

Field melting point (entry COC(=O)Nc1ccc(CN2OCC(C)(C)C2=O)c(Cl)c1 ) reads 165 to 167 °C

====

readout.name: melting point

Field melting point (entry CS(=O)(=O)c1ccc(-c2cc(C(CCCCCO[N+](=O)[O-])=NO)nn2C2CCCCC2)cc1 ) reads 111 to 113 °C

Field melting point (entry NS(=O)(=O)c1ccc(N2N=C(C(F)(F)F)CC2c2ccccc2)cc1 (stereo unspecified) ) reads 132 to 135 °C

Field melting point (entry Oc1ccc2cc(COC=C3C4CC5CC(C4)CC3C5)ccc2c1 ) reads 133 to 140 °C

Field melting point (entry Cc1cc2cccc(OS(=O)(=O)C(F)(F)F)c2nc1-c1ccccc1 ) reads 85 °C

Field melting point (entry CCOC(=O)c1cn(C2CC2)c2cc(Br)c(F)c(C)c2c1=O ) reads 195 to 197 °C

Field melting point (entry Cc1cc2cc(CN3CCCC3)cnc2cc1NC(=O)c1ccc(-c2ccc(Cl)cc2)cc1 ) reads 214 to 217 °C

Field melting point (entry CCc1cc(C#N)c(Cl)nc1C ) reads 63 to 64 °C

Field melting point (entry COc1cccc2c(Cl)nc(C)nc12 ) reads 101 to 102 °C

Field melting point (entry O=C(Oc1cccc(Cl)c1)c1ncn2c1[C@@H]1CCCN1C(=O)c1c(Cl)cccc1-2 ) reads 194 to 195 °C

Field melting point (entry O=C1CCCc2nc3ccccc3c(NCc3cccc(Cl)c3)c21 ) reads 138 to 140 °C

Field melting point (entry O=C(NS(=O)(=O)c1ccc(Cl)cc1)N1C(=O)C(c2ccccc2)N1C(c1ccccc1)c1ccccc1 (stereo unspecified) ) reads 162 to 163 °C

Field melting point (entry CCC(CC)Nc1nc(C)nc(Oc2c(C)cc(C)cc2C)c1N ) reads 248 to 250 °C

Field melting point (entry COc1ccccc1NC(=O)Nc1nc(Nc2ccccc2-c2ccccc2)nc(N(CCC(=O)O)Cc2ccc(C)cc2)n1 ) reads 102 °C

Field melting point (entry CCCOc1ccc(C2CCCN3CCS(=O)(=O)N=C23)cc1 (stereo unspecified) ) reads 169 to 170 °C

Field melting point (entry COc1ccc(C2CNC(=O)C2)cc1I (stereo unspecified) ) reads 158 °C

Field melting point (entry Cc1ccc(COc2ccn(Cc3ccccc3)c(=O)c2Br)cc1 ) reads 149 to 150 °C

Field melting point (entry CCCCC(C(=O)c1ccc(Cl)cc1)n1cncn1 (stereo unspecified) ) reads 81 to 83 °C

Field melting point (entry CSC1NC(=O)N(c2cccs2)C(=O)N1 ) reads 220 to 222 °C

Field melting point (entry CC1=C(C2C=CN(C(=O)OCC(Cl)(Cl)Cl)C=C2)SCC(=O)N1 ) reads 158 to 160 °C

Field melting point (entry CCCC(=O)Cc1ccc(C(=O)Nc2ccc3cc(CN4CCCCC4)cnc3c2C)cc1 ) reads 164 to 165 °C

Field melting point (entry CC(C)(C)c1cc(C2SCC(=O)N2CCC(=O)O)cc(C(C)(C)C)c1O (stereo unspecified) ) reads 164 to 165 °C

====

Provide the reported melting point of each item.

Field melting point (entry Nc1cnc(Br)c(Cl)n1 ) reads 120 to 122 °C

Field melting point (entry Cn1cc(C2=NOCCO2)c(Cl)n1 ) reads 112 °C

Field melting point (entry CCN(CC)C(=O)n1ccc(Sc2cccc(C)c2)n1 ) reads 96 to 98 °C

Field melting point (entry COc1c2c(c(OC)c(OC)c1OC)CCC(CCOc1ccccn1)CC2 ) reads 132 to 135 °C

Field melting point (entry CCCCc1nn(CCC)c(C(=O)O)c1Cc1ccc(C2(C(=O)O)CC=CC2)s1 ) reads 121 to 122 °C

Field melting point (entry O=C(C=Cc1c(Cl)cccc1Cl)c1ccccc1 ) reads 83 °C

Field melting point (entry COC(=O)c1ccc(C(=O)c2ccccc2)cc1 ) reads 133 to 135 °C

Field melting point (entry CCOC(=O)c1ncn2c1[C@@H]1CCCN1C(=O)c1ccccc1-2 ) reads 196 to 197 °C

Field melting point (entry Cc1cc2ncn(Cc3ccc([N+](=O)[O-])cc3)c2cc1C ) reads 175 to 177 °C

Field melting point (entry Clc1ccc(-c2coc3ccccc23)cc1 ) reads 56 to 57 °C

Field melting point (entry CN1c2ccc(Cl)cc2C(c2ccccc2Br)=Nc2cccnc21 ) reads 121 to 123 °C

====

Provide the reported melting point of each item.

Field melting point (entry CC(C)(C)Oc1c(-c2ccc(S(C)(=O)=O)cc2)cnn(-c2cccc(Cl)c2)c1=O ) reads 232 to 235 °C

Field melting point (entry Cc1cc(Cl)ccc1NC(=S)N(C)OCC(=O)O ) reads 110 to 113 °C

Field melting point (entry CCCCCCCCCCCCCCOc1ccc(C(=O)NCCc2ccccn2)cc1 ) reads 80 to 82 °C

Field melting point (entry c1ccc(-c2nc3ccccc3s2)nc1 ) reads 133 to 134 °C

Field melting point (entry COc1ccc(C(=O)c2c(O)c3ccccc3[nH]c2=O)cc1OC ) reads 235 to 236 °C

====

Provide the reported melting point of each item.

Field melting point (entry CCn1cc(C(=O)O)c(=O)c2cc(Br)c(N3CCOCC3)cc21 ) reads 266 °C

Field melting point (entry CCCCOc1nc(N)c2[nH]c(=O)n(CCCCNS(=O)(=O)c3ccc(CCC(=O)OC)cc3)c2n1 ) reads 150 to 152 °C

Field melting point (entry O=C(O)c1cccc(-c2ccc3c(n2)C(Oc2ccc(Cl)cc2Cl)CC3)c1 (stereo unspecified) ) reads 198 to 204 °C

Field melting point (entry Cc1ccc(S(=O)(=O)CNC=O)cc1 ) reads 103 to 107 °C

Field melting point (entry CCCN(CCC(=O)Nc1c(SC)nc(C)nc1N(CC)CC)c1ccccc1 ) reads 147 to 149 °C

Field melting point (entry O=C(O)c1ccc2cn(C3CCCC3)nc2c1 ) reads 190 to 193 °C

Field melting point (entry CNS(=O)(=O)N1CCn2c(c(C(N)=O)c(Cl)c2-c2ccccc2)C1 ) reads 193 to 196 °C

Field melting point (entry COc1cc(C=O)c(OC)c2c1C(C)(C)CCC2(C)C ) reads 55 to 57 °C

Field melting point (entry COc1ccc(C(=O)NCCCN2CCN(C(c3ccccc3)c3ccccc3)CC2)cc1 ) reads 126 to 128 °C

Field melting point (entry c1ccc2c(c1)OCC(c1ncc[nH]1)O2 (stereo unspecified) ) reads 225 to 227 °C

Field melting point (entry CCOc1c(OC)cc(N)c2ncccc12 ) reads 129 to 131 °C

Field melting point (entry CNc1nc(-c2cccc(NC(=O)c3ccccc3Cl)c2)c2cc(OC)c(OC)cc2n1 ) reads 197 to 199 °C

Field melting point (entry COc1ccc(-n2nnc(-c3ccc(Cl)cc3Cl)c2N)cc1 ) reads 155 to 164 °C

Field melting point (entry CC1OC1C1CC(O)C2(C)CCC3C(CCC4CC(OC5CCCCO5)CC(C)C43C)C12 (stereo unspecified) ) reads 172 to 174 °C

Field melting point (entry Cc1c(C(O)C(F)(F)F)oc2c(Br)cccc12 (stereo unspecified) ) reads 93 °C

Field melting point (entry CCCn1c(=O)c2[nH]c(C3CCC(C(=O)OC)C3)nc2n(CCC)c1=O (stereo unspecified) ) reads 188 to 194 °C

Field melting point (entry O=C(NCCn1cncn1)c1ccc(Br)cc1 ) reads 160 to 162 °C

Field melting point (entry O=C(O)c1ccc(Cn2c(=O)sc3ccc(C#CCc4ccccc4)cc3c2=O)cc1 ) reads 240 to 242 °C

Field melting point (entry CNc1cc(Cl)cc(NC)c1[N+](=O)[O-] ) reads 193 °C

Field melting point (entry Cc1nnc(C(C)C)n1C1CC2CCC(C1)N2CCC(NC(=O)C1CCC(F)(F)CC1)c1ccc(N)cc1 (stereo unspecified) ) reads 103 to 105 °C

Field melting point (entry CCc1c(Cc2ccccc2)oc2c(C(=O)NCCCN3CCN(c4ccccc4OC)CC3)cccc12 ) reads 110 to 112 °C

Field melting point (entry O=C(O)C=NNc1ccc(C(F)(F)F)cc1 ) reads 125 °C

Field melting point (entry CCOC(=O)c1ncc2[nH]c3ccc(N4CCCS4(=O)=O)cc3c2c1C ) reads 230 °C

Field melting point (entry O=C(O)c1c(Cl)cc(Cl)nc1Cl ) reads 138 to 141 °C

Field melting point (entry CC1=C(C(=O)OC(C)C)C(c2cccc(Cl)c2Cl)N(C(=O)OC(C)C)C(=S)N1 (stereo unspecified) ) reads 179 to 181 °C

Field melting point (entry COc1ccc(CCNc2cc(-c3ccco3)nc(-c3nccs3)n2)cc1OC ) reads 83 to 83.8 °C

Field melting point (entry CCCN1CCC(Cc2ccc3c(c2)c(Cc2ccc(C(=O)O)cc2OC)cn3C)C1=O (stereo unspecified) ) reads 202 to 212 °C

Field melting point (entry CC1(C)NC(=O)N(Cc2ccccc2)C1=O ) reads 101 to 104 °C

Field melting point (entry COc1ccc2[nH]ccc2c1OCc1ccccc1 ) reads 83 to 84 °C

Field melting point (entry O=C1Nc2ccc(Cl)cc2C2(c3cccs3)OCCN12 (stereo unspecified) ) reads 193 to 194 °C

Field melting point (entry CN(C)C(=O)Cc1c(-c2ccc(Cl)cc2)nn2cccnc12 ) reads 174 to 176 °C

Field melting point (entry COC(=O)CCc1ccc(OCc2cccc(-c3cccc(CO)c3)c2)cc1 ) reads 185 to 188 °C

Field melting point (entry COC(=O)c1ccc(OC)c(NC(=O)C[C@H]2O[C@H](c3cccc(OC)c3OC)c3cc(Cl)ccc3N(CC(C)(C)COC(C)=O)C2=O)c1 ) reads 138 to 140 °C

Field melting point (entry COc1ccc([C@@H]2Sc3cc(Cl)ccc3N(CCN(C)C)C(=O)[C@@H]2OCC(=O)OC(C)(C)C)cc1 ) reads 83 to 84 °C

Field melting point (entry O=[N+]([O-])c1cc2c(cc1Oc1ccccc1)CCC2 ) reads 41 °C

Field melting point (entry Cc1nnc(SCc2ccc(C(=O)N(C)C)cc2)s1 ) reads 75 to 80 °C

Field melting point (entry CN1CC(CCN2CC(=O)NC2=O)CC2c3cccc4[nH]cc(c34)CC21 (stereo unspecified) ) reads 242 to 244 °C

Field melting point (entry Cc1ccc(C(=O)C2=C(O)C(=O)N(c3ccc(C)nn3)C2c2ccc(OC3CCN(C)CC3)cc2)cc1 (stereo unspecified) ) reads 259 to 260 °C

Field melting point (entry Cn1cc(CCN2C(=O)c3ccccc3C2=O)c2cc(CNC=O)ccc21 ) reads 189 to 191 °C

Field melting point (entry CCCc1nc2c(N)nc3ccccc3c2n1CCCCCC(=O)N(C)OC ) reads 134 to 135 °C

Field melting point (entry O=C1CCCc2c1c1cccc(F)c1n2Cc1ccc(F)cc1 ) reads 177 to 178 °C
